The following compounds are listed with their measured activation factor values.
- MEASUREMENT PROTOCOL: MT1-MMP promoter reporter activation – cell-based, luciferase luminescence, primary screen (AID 750)
- STATED CONDITIONS: HT1080 MT1-MMP promoter luciferase reporter, overnight, at 10 µM, hits give high values
Hit rate of the full screen: of about 86,000 compounds, about 140 (0.16%) were called active. The entries come from a sample that favours actives as a whole.
Reply with the value as a number alone.

Before answering, review these 10 worked examples.
[
  {
    "COMPOUND": "O=C(OC1CCCCC1=O)c1cccc(S(=O)(=O)NCc2ccccc2)c1 (centres undefined)",
    "PARAMETER": "activation factor",
    "VALUE": 1.2
  },
  {
    "COMPOUND": "O=C(CN1CCN(C(=O)c2ccco2)CC1)Nc1ccc2c(c1)OCO2",
    "PARAMETER": "activation factor",
    "VALUE": 1.4
  },
  {
    "COMPOUND": "CCOc1ccc(C(=O)NC(C(=O)NCc2ccccn2)C(C)C)cc1 (centres undefined)",
    "PARAMETER": "activation factor",
    "VALUE": 1.3
  },
  {
    "COMPOUND": "O=C(NCCc1ccccc1)c1ccc(OCCOc2ccccc2)cc1",
    "PARAMETER": "activation factor",
    "VALUE": 1
  },
  {
    "COMPOUND": "Cn1c(SCC(=O)NC2CCCCC2)nnc1-c1cc2ccccc2o1",
    "PARAMETER": "activation factor",
    "VALUE": 1.4
  },
  {
    "COMPOUND": "Cc1[nH]n(-c2ccc(Cl)cc2)c(=O)c1/C=N/n1c(C)nc2ccccc2c1=O",
    "PARAMETER": "activation factor",
    "VALUE": 1
  },
  {
    "COMPOUND": "COc1ccc(-c2oc(/N=C/N3CCCC3)c(C#N)c2-c2ccc(OC)cc2)cc1",
    "PARAMETER": "activation factor",
    "VALUE": 1.1
  },
  {
    "COMPOUND": "COc1cc(OC)cc(-c2cc3nc(C4CCN(C(=O)OC(C)(C)C)CC4)cc(=O)n3[nH]2)c1",
    "PARAMETER": "activation factor",
    "VALUE": 1.1
  },
  {
    "COMPOUND": "COC(=O)c1ccc(C(NC(=O)OCc2ccccc2)/C(C)=C/[C@@H](C)C(=O)NCc2ccc(OC)c(OC)c2)cc1 (some centres undefined)",
    "PARAMETER": "activation factor",
    "VALUE": 1.4
  },
  {
    "COMPOUND": "Cc1ccc(-c2csc(NC(=O)Cc3cccs3)n2)cc1C",
    "PARAMETER": "activation factor",
    "VALUE": 1.3
  }
]

activation factor for CCCCNC(=O)C1CCCN(S(=O)(=O)c2ccc(S(=O)(=O)NCC(C)C)cc2)C1 (centres undefined) is 1.2

The compound listed as CC1=C(C(=O)OC(C)(C)C)C(c2ccc(Br)cc2)NC(=O)N1CCCC(=O)O (centres undefined) has a reported activation factor of 1.1

# compound CC(C)C(NC(=O)c1ccc(Cl)cc1)C(=O)O (centres undefined) ; its activation factor = 1.1

The recorded activation factor for CCOC(=O)C1=C(CCc2ccccc2)NC(=O)NC1c1ccc2ccccc2c1 (centres undefined) is 1.4

For "CS(=O)(=O)N1CCN(c2cccc(Cl)n2)CC1" the compound record lists activation factor as 1.2

So for "NC(=O)c1ncc(C(F)(F)F)cc1Oc1ccc(F)cc1" , the logged activation factor turned out to be 1.1

Short answer for "O=C(CCn1c(SCC(=O)c2ccccc2)nc2ccccc2c1=O)NCc1ccc(F)cc1" : activation factor was 1.1

* * *

- MEASUREMENT PROTOCOL: MT1-MMP promoter reporter activation – cell-based, luciferase luminescence, primary screen (AID 750)
- STATED CONDITIONS: HT1080 MT1-MMP promoter luciferase reporter, overnight, at 10 µM, hits give high values
Screen size: about 86,000 compounds; about 140 (0.16%) were called active. For the sample, actives were picked, then their nearest neighbours and some compounds at random.
PARAMETER: activation factor
Simply state the number, no unit and no words.

[
  {
    "MOLECULE": "O=C(O)CSCc1ccc(C(=O)O)o1",
    "activation factor": 1.2
  },
  {
    "MOLECULE": "Cc1noc(NS(=O)(=O)c2ccc(N/C=C/C(=O)c3ccccc3)cc2)c1C",
    "activation factor": 1.3
  },
  {
    "MOLECULE": "COc1ccc(C(c2nnnn2C2CCCCC2)N2CCN(c3ccccc3F)CC2)cc1 (stereo unspecified)",
    "activation factor": 1.1
  },
  {
    "MOLECULE": "Cc1ccc(OCC(=O)N2CCN(C(=O)c3cccnc3)CC2)cc1",
    "activation factor": 1
  },
  {
    "MOLECULE": "CC(C)C(OC(=O)c1cccs1)C(=O)NC1CCCCC1 (stereo unspecified)",
    "activation factor": 1.3
  },
  {
    "MOLECULE": "CCOC(=O)c1ccccc1NS(=O)(=O)c1ccc(OC)cc1",
    "activation factor": 1
  }
]

The molecule listed as COc1ccc(C2C(C(C)=O)=C(O)C(=O)N2Cc2cccnc2)cc1 (stereo unspecified) has a reported activation factor of 1.2

activation factor reported for this molecule O=C1C2N=NN(CC(=O)N3N=C(c4cccc5ccccc45)CC3c3ccccc3)C2C(=O)N1c1ccccc1 (stereo unspecified) : 1.2

// "c1ccc(C(c2ccccc2)N2CCN(Cc3nnnn3C3CCCCC3)CC2)cc1" : activation factor value = 2

// sample "COc1ccccc1CCNC(=O)c1cnccn1" , its activation factor was 1.2

Measured activation factor, "c1ccc(CCn2nnnc2CN2CCN(C3CCCC3)CC2)cc1" : 1.1

* * *

- MEASUREMENT PROTOCOL: MT1-MMP promoter reporter activation – cell-based, luciferase luminescence, primary screen (AID 750)
- STATED CONDITIONS: HT1080 MT1-MMP promoter luciferase reporter, overnight, at 10 µM, hits give high values
Out of some 86,000 compounds screened, about 140 (0.16%) were called active. The entries come from a sample that favours actives as a whole.
PARAMETER: activation factor

Record "COc1ccc(C)cc1NC(=O)CCS(=O)(=O)c1cccc2nonc12" , field activation factor: 1 (inactive)

Recorded activation factor (compound CNC(=S)N1N=C(c2ccccc2)CC1c1ccc(Br)cc1 (stereo unspecified) ): 1.3 (inactive)

The reported value for CCC(C)(C(=O)NC1CCCCC1)N(C)C(=O)c1ccc2c(c1)OCO2 (stereo unspecified) in terms of activation factor is 1 (inactive)

Just so you know, measured activation factor for "CCN(CC)C(=O)CSc1nc2ccccc2n1CC(=O)N1CCN(c2ccccc2OC)CC1" came out at 1.1 (inactive)

Entry OC(CN1C2=NCCCN2c2ccccc21)c1ccc(Br)cc1 (stereo unspecified) ; activation factor = 1.2 (inactive)

Sample "Cc1cccc(C(=O)N2CCCN(C(=O)c3cccc(C)c3)CC2)c1" ; activation factor observed: 1 (inactive)

The compound "Cc1ccc(OCCCC(=O)Nc2ccc(N3CCOCC3)cc2)cc1" showed activation factor equal to 1.1 (inactive)

The recorded activation factor for entry CC1CC(C)CN(CC(=O)N2c3ccccc3CCc3ccccc32)C1 (stereo unspecified) equals 1.1 (inactive)

Form: compound = CC(C)CCNC(=O)CC1C(=O)N(Cc2ccccc2)C(C)c2nc3ccccc3n21 (stereo unspecified) ; activation factor = 1 (inactive)

Just so you know, measured activation factor for "COC(=O)C1CCN(CC(N)=O)CC1" came out at 1.1 (inactive)

Summary for this compound, "COc1cccc(NC(=O)CN2CCN(c3nc(-c4cccc(OC)c4)cs3)CC2)c1" : activation factor is 1.2 (inactive)

* * *

- MEASUREMENT PROTOCOL: MT1-MMP promoter reporter activation – cell-based, luciferase luminescence, primary screen (AID 750)
- STATED CONDITIONS: HT1080 MT1-MMP promoter luciferase reporter, overnight, at 10 µM, hits give high values
Hit rate of the full screen: of about 86,000 compounds, about 140 (0.16%) were called active. The entries come from a sample that favours actives as a whole.
PARAMETER: activation factor
Respond with the number and no other words.

Some solved entries appear below for comparison.
[
  {
    "COMPOUND": "COc1ccccc1NC(=O)CC(NCCN(C)C)C(=O)O (configuration not stated)",
    "activation factor": 1
  },
  {
    "COMPOUND": "CC(C)NC(=O)CSc1nnc(COc2ccccc2Cl)o1",
    "activation factor": 1.1
  },
  {
    "COMPOUND": "O=C1/C(=C\\Nc2ccccc2)CCN1c1ncccn1",
    "activation factor": 1.9
  },
  {
    "COMPOUND": "Cc1cc(NC(=O)CN2CCCC(C)C2)n(-c2nc3ccccc3s2)n1 (configuration not stated)",
    "activation factor": 1.2
  },
  {
    "COMPOUND": "COc1ccc(/C=N/Nc2nc3ccccc3o2)cc1OC",
    "activation factor": 1.7
  },
  {
    "COMPOUND": "Cc1cc(C)n(-c2nc(O)cc(=O)[nH]2)n1",
    "activation factor": 1
  },
  {
    "COMPOUND": "COc1ccc(C(=O)Cc2cnn(-c3ccccc3)c2)c(O)c1",
    "activation factor": 1.3
  },
  {
    "COMPOUND": "OC(CN=c1sc2ccccc2n1CC(O)COc1ccccc1)COc1ccccc1 (configuration not stated)",
    "activation factor": 1.4
  },
  {
    "COMPOUND": "CCn1c(CC(=O)Nc2ccc(C)cc2)nnc1SCC(=O)Nc1nc(C)cs1",
    "activation factor": 1.1
  },
  {
    "COMPOUND": "O=C(COc1ccc(Cl)cc1)NCCSc1ccccc1",
    "activation factor": 1.2
  }
]

Value of measured activation factor for the entry CCn1c(SCC(=O)Nc2nc(C)cs2)nnc1C(C)NC(=O)c1ccccc1 (configuration not stated) : 1.3

Entry "Cc1ccc(C(=O)N2CCCC2)c(F)c1F" ; activation factor = 1.2
